Parameter: pIC50. Scope: all listed entries.
# tested.system: UniProtKB Q12809
# Sequence (Q12809 whole entry): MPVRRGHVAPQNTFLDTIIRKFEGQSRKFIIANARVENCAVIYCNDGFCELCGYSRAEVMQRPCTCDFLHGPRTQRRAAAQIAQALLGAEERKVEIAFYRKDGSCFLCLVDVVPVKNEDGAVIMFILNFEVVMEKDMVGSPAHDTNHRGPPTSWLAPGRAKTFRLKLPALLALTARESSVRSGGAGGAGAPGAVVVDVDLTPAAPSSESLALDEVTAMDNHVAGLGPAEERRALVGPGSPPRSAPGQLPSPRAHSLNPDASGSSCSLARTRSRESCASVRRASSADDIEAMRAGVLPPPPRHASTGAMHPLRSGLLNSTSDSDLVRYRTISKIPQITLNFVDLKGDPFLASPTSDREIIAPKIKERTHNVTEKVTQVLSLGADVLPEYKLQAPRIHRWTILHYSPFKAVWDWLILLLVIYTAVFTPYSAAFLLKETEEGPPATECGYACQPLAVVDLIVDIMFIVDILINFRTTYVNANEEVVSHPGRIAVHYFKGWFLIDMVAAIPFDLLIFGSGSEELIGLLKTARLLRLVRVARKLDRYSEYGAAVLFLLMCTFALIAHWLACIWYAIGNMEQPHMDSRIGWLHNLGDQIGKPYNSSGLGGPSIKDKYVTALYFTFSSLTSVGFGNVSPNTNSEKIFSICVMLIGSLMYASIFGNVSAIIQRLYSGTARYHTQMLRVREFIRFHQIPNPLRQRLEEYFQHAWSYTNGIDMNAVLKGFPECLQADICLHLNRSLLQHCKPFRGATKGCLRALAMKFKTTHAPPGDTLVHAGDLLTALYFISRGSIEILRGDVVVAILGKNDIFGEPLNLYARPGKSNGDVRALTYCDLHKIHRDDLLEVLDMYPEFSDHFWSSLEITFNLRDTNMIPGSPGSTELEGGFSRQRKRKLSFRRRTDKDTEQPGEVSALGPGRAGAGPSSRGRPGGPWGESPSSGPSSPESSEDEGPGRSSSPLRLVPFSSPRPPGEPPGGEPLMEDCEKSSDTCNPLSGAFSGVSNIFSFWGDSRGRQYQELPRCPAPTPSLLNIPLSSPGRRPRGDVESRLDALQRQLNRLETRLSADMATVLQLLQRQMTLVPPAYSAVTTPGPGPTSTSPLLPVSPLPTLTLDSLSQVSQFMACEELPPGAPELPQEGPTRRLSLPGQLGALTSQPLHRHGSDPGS
# experimental.details: HERGBD: inhibition of specific [3H]-Dofetilide binding to the hERG receptor
pIC50: −log10 of the molar value.
recorded.metric: pIC50

• Cc1cc(Cn2cc(-c3ccc(Cl)c(OC(F)F)c3)cn2)[nH]n1 [Example 13] = 4.43
• Cc1n[nH]c(C)c1Cn1cc(-c2ccc(F)c(C(C)(F)F)c2)cn1 [Example 90] = 4.08
• Cn1ccc(Cn2cc(-c3ccc(Cl)cc3Cl)cn2)n1 [Example 66, Succinate] = 5.05
• CCn1ccc(Cn2cc(-c3ccc(Cl)c(OC(F)F)c3)cn2)n1 [Example 8] = 4.39
• Cn1ccc(Cn2cc(-c3ccc(F)c(C(F)F)c3)cn2)n1 [Example 31, Succinate] = 4.71

---

# tested.system: human NR1/NR2B ion channels (Homo sapiens (Human), UniProt Q05586+Q13224)
# Sequence (Q13224 27-1484, other chains not shown): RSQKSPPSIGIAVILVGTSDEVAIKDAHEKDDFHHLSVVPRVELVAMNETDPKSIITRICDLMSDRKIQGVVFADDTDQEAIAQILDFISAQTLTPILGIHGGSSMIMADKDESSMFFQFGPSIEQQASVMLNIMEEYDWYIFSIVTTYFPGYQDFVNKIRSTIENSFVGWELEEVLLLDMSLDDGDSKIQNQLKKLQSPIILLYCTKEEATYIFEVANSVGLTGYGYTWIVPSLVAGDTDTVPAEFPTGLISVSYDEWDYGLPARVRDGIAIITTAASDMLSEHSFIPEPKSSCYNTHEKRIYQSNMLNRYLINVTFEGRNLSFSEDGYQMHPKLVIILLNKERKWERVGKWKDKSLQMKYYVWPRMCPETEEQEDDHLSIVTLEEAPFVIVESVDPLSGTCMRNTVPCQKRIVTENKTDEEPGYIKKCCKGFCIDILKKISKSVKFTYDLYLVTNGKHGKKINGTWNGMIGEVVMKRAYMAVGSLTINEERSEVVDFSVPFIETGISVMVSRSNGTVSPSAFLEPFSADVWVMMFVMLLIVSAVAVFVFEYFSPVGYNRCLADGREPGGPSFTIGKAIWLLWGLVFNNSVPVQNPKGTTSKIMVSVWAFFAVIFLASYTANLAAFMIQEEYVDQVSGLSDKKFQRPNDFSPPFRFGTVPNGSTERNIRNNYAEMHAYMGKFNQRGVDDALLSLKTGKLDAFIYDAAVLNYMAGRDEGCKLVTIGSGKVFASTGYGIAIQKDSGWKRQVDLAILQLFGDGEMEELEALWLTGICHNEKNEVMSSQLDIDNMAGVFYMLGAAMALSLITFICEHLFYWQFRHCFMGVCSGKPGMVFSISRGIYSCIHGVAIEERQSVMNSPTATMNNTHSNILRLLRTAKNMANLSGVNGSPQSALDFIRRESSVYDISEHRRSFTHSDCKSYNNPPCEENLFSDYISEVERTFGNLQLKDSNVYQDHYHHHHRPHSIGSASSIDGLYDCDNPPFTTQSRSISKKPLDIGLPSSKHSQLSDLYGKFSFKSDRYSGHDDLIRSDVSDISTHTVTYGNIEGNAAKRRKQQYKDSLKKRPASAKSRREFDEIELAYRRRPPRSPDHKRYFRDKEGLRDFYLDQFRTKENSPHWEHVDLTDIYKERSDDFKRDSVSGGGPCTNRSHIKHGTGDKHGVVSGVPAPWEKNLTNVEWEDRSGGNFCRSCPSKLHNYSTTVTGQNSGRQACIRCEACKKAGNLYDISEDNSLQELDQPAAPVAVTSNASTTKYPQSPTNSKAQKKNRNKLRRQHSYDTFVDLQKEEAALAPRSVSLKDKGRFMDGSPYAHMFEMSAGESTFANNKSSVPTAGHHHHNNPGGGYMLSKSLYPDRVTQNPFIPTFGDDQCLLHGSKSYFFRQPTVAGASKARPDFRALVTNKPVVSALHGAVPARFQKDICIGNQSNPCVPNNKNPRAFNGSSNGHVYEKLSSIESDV
# experimental.details: HNR2BC: calcium influx assay on cloned human NR1/NR2B ion channels expressed in HEK cells
# Type: cell-based
# experimental.context: HEK cells with hNR1/NR2B, 100 μM glutamate + 100 μM glycine, 3 parameter plot
Our labelling divides records by IC50 into ranges: low bracket = under 0.4 µM, middle bracket = from 0.4 µM up to 4 µM, high bracket = 4 µM and over

• Fc1ccc(-c2cnn(Cc3cc[nH]n3)c2)cc1OC(F)F = low bracket
• CCc1[nH]ncc1Cn1cc(-c2ccc(Cl)c(OC(F)F)c2)cn1 = middle bracket
• CCc1c[nH]nc1Cn1cc(-c2ccc(F)c(C(F)F)c2)cn1 = high bracket
• Cc1cc(Cn2cc(-c3ccc(Cl)cc3)cn2)n(C)n1 = high bracket
• CCc1[nH]ncc1Cn1cc(-c2ccc(F)c(C(F)F)c2)cn1 = middle bracket
• Cc1[nH]ncc1Cn1cc(-c2ccc(Cl)c(OC(F)F)c2)cn1 = middle bracket
• FC(F)Oc1cc(-c2cnn(Cc3cn[nH]c3)c2)ccc1Cl = low bracket
• Cc1[nH]ncc1Cn1cc(-c2ccc(F)c(C(F)F)c2)cn1 = middle bracket
• FC(F)Oc1cc(-c2cnn(Cc3cc[nH]n3)c2)ccc1Cl = low bracket

---

# tested.system: rat NR1/NR2B receptor (Rattus norvegicus (Rat), UniProt P35439+Q00960)
# Sequence (Q00960 27-1482, other chains not shown): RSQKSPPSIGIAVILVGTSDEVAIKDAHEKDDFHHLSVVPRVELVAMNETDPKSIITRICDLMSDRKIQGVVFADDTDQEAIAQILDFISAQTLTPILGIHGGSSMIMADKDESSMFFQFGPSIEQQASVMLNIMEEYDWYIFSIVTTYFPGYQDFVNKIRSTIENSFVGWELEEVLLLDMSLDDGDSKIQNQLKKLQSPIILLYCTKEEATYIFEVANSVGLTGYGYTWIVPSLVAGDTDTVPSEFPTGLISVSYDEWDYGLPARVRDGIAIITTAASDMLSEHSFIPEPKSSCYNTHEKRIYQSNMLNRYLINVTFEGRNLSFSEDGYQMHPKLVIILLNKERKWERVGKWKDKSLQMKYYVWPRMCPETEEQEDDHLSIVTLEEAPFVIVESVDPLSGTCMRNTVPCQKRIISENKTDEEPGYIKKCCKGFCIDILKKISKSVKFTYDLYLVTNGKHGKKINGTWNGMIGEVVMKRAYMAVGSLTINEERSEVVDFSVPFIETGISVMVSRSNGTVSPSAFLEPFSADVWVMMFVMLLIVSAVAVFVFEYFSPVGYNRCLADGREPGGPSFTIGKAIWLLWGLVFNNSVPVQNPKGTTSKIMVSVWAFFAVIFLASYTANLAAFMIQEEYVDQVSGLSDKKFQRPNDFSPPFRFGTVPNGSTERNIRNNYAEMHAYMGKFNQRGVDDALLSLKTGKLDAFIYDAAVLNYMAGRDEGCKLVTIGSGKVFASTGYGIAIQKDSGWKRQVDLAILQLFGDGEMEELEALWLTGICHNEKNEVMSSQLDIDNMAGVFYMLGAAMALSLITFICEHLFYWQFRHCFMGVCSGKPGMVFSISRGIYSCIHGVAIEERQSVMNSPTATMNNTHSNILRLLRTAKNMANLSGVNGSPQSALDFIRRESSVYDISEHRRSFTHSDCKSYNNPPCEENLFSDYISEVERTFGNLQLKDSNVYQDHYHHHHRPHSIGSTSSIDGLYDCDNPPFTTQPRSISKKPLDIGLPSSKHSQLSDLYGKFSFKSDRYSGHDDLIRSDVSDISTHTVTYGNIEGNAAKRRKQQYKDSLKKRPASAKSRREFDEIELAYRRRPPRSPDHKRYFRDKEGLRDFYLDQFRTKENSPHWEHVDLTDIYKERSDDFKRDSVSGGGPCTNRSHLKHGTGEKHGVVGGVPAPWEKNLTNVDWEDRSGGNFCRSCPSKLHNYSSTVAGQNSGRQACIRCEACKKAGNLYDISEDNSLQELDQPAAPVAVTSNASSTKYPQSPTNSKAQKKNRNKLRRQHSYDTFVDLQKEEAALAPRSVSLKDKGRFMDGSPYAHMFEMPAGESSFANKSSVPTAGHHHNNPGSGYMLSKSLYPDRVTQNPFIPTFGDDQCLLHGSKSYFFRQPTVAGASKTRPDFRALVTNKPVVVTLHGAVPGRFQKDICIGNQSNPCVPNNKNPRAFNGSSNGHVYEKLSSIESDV
# experimental.details: NR2B binding assay: inhibition of specific [3H]-Ifenprodil binding to the rat NR1/NR2B receptor
# experimental.context: 1 μM test compound, [3H]-Ifenprodil binding, rat brain membranes; read-out: % INH @ 1 μM
Kind request: treat 20% as inclusive, so inhibition at 1 µM at 20% or higher is fulfilled, anything lower is not fulfilled.

• Cn1nccc1Cn1cc(-c2ccccc2)cn1 = not fulfilled
• Cc1cc(Cn2cc(-c3ccccc3)cn2)n(C)n1 = not fulfilled
• Cc1cc(Cn2cc(-c3ccccn3)cn2)n(C)n1 [Example 105, Succinate] = not fulfilled
• Cn1ccc(Cn2cc(-c3cc(F)cc(F)c3)cn2)n1 = not fulfilled
• COc1cc(F)ccc1-c1cnn(Cc2ccn(C)n2)c1 [Example 67, Succinate] = not fulfilled
• Cn1ccc(Cn2cc(-c3ccccc3)cn2)n1 = fulfilled
• Clc1ccc(-c2cnn(Cc3cn4ccccc4n3)c2)cc1 = fulfilled
• CCC(CC)n1ccc(Cn2cc(-c3ccc(Cl)c(OC(F)F)c3)cn2)n1 = not fulfilled
• Fc1ccc(-c2cnn(Cc3cc(Cn4ccc(-c5ccc(F)c(C(F)F)c5)n4)n[nH]3)c2)cc1C(F)F = not fulfilled
• Cn1ccc(Cn2cc(-c3ccccn3)cn2)n1 [Example 104, Succinate] = fulfilled
